Values were extracted from ChEMBL document CHEMBL1151357.

tested on: Phaseolus vulgaris; experiment: Growth inhibition of pinto bean plants assessed as inhibition of second inter node elongation at 150 ug after 4 days relative to control; assay type: functional
Respond with yes (1) for inhibition (INH) values of 30% and above, no (0) for values below.

Query block: In plain terms: is recorded inhibition (INH) at least 30% for COc1cc2c(c(OC)c1OC)C(C)NCC2.Cl (racemic) ?
Result block: yes (1)

Query block: Check the entry CI.COc1cc2c(c(OC)c1OC)CNCC2 [ANHALININE METHYLIODIDE] : does inhibition (INH) equal or exceed 30%?
Result block: yes (1)

Query block: For this molecule, is measured inhibition (INH) 30% or higher? COc1cc([C@@H](O)[C@H](C)N)cc(OC)c1OC.O=C(O)C(=O)O
Result block: no (0)

Query block: Evaluate COc1c(OC(=O)c2ccccc2)c(OC(=O)c2ccccc2)cc2c1C(C)NCC2.Cl (stereo unspecified) : inhibition (INH) at minimum 30%?
Result block: no (0)

Query block: Does COc1cc2c(cc1O)CCN[C@H]2C.Cl [SALSOLINE HYDROCHLORIDE] have a reported inhibition (INH) of at least 30%?
Result block: yes (1)

Query block: Decide: inhibition (INH) of Cl.NCCc1ccc(O)c(O)c1 [DOPAMINE HYDROCHLORIDE] >= 30%?
Result block: no (0)

Query block: Is it the case that CN1CCc2cc3c(c(O)c2C1)OCO3.Cl has inhibition (INH) reaching or exceeding 30%?
Result block: no (0)

Query block: Say whether O=C(O)C1NCCc2cc(O)c(O)cc21 (stereo unspecified) shows inhibition (INH) of 30% or more.
Result block: no (0)

Query block: Is the recorded value of inhibition (INH) equal to or greater than 30% for this molecule? Cl.NCCc1cc(O)c(O)cc1O [OXIDOPAMINE HYDROCHLORIDE]
Result block: no (0)

Query block: Hello, I need to know if CC1(C(=O)O)NCCc2cc(O)c(O)cc21 (stereo unspecified) has measured inhibition (INH) not below 30%. Thanks!
Result block: no (0)

Query block: Please indicate if the recorded inhibition (INH) for COc1cc2c(c(OC)c1OC)[C@H](C)[N+](C)(C)CC2.[I-] meets or exceeds 30%.
Result block: yes (1)

Query block: Check this molecule for inhibition (INH) at or above 30%: COc1cc(CC[N+](C)(C)C)cc(OC)c1OC.[I-] [TRICHOCERINE METHYL IODIDE]
Result block: yes (1)

Query block: Dear colleague, could you confirm whether COc1ccc2c(c1OC)C(C)N(C)CC2.Cl (racemic) has inhibition (INH) at or above 30%?
Result block: yes (1)

Query block: Reported inhibition (INH) at or above 30%? COc1cc2c(c(OC)c1OC)CNCC2.Cl [ANHALININE HYDROCHLORIDE]
Result block: yes (1)

Query block: Tell me whether inhibition (INH) is at least 30% here: COc1cc([C@@H](O)[C@H](C)N)cc(O)c1OC.O=C(O)C(=O)O
Result block: no (0)

Query block: Answer whether inhibition (INH) of COc1cc2c(cc1OC)[C@H](C)N(C)CC2.Cl [CARNEGINE HYDROCHLORIDE] is greater than or equal to 30%.
Result block: yes (1)

Query block: Test whether the molecule COc1cc(CCn2cccc2)cc(OC)c1OC [DECARBOXYPEYONINE] records inhibition (INH) of 30% or higher.
Result block: no (0)

Query block: Is it the case that COc1cc([C@@H](O)[C@H](C)N)cc(OC)c1OC.O=C(O)C(O)C(O)C(=O)O has inhibition (INH) reaching or exceeding 30%?
Result block: no (0)

Query block: Is the recorded value of inhibition (INH) equal to or greater than 30% for this molecule? COc1cc2c(c(O)c1OC)[C@H](C)N(C)CC2.Cl [PELLOTINE HYDROCHLORIDE]
Result block: no (0)

Query block: Dear colleague, could you confirm whether COc1cc(CCN)cc(O)c1OC.Cl has inhibition (INH) at or above 30%?
Result block: yes (1)

Query block: Is it the case that O=C1CCC2(C(=O)O)c3cc(O)c(O)cc3CCN12 (stereo unspecified) has inhibition (INH) reaching or exceeding 30%?
Result block: no (0)

Query block: Quick check: does COc1cc2c(c(OC)c1OC)C(O)CNC2 (stereo unspecified) have inhibition (INH) greater than or equal to 30%?
Result block: no (0)

Query block: Reported inhibition (INH) reaches at least 30% for COc1cc([C@@H](O)[C@H](C)N)cc(OC)c1OC.Cl ?
Result block: no (0)

Query block: Item C[N+](C)(C)CCc1ccc(O)cc1.[I-] [CANDICINE IODIDE] with inhibition (INH) of 30% or above?
Result block: yes (1)

Query block: In plain terms: is recorded inhibition (INH) at least 30% for COc1cc(CCN)cc(OC(=O)c2ccccc2)c1OC.Cl ?
Result block: no (0)

Query block: State whether the measured inhibition (INH) reaches 30%, counting equality as reaching it, for COc1cc2c(c(O)c1OC)[C@H](C)[N+](C)(C)CC2.[I-]
Result block: yes (1)

* * *

system: Phaseolus vulgaris; test: Phytotoxicity against pinto bean plants assessed as induction of necrosis at 150 ug after 4 days; type: functional, organism-based
The source made the active and inactive calls. The rule behind the calls is not given here.
assay-endpoint: Activity

// below: answered compounds
COc1cc([C@@H](O)[C@H](C)N)cc(OC)c1OC = Active
COc1ccc2c(c1OC)C(C)N(C)CC2.Cl (racemic) = Active
COc1cc2c(c(OC)c1OC)CNCC2 = Active
C[N+](C)(C)CCc1ccc(O)cc1.[I-] [CANDICINE IODIDE] = Active
COc1cc(CCN)cc(O)c1OC.Cl = Active
COc1cc([C@@H](O)[C@H](C)N)cc(O)c1OC.O=C(O)C(=O)O = Active

Query block: Requested read-out: Activity. Entry: COc1cc(CC[N+](C)(C)C)cc(OC)c1OC.[I-] [TRICHOCERINE METHYL IODIDE]
Result block: Active
